# Test system: HepG2
# method-description: cytotoxicity call (relative viability < 0.9)
# condition: 10 µM
The whole screen tested about 39,000 compounds, of which about 3,300 (8.5%) were called active. This excerpt belongs to a sample that is enriched for actives.
readout-name: cytotoxicity call

- line-notation: "CO[C@H]1O[C@H](CO)[C@@H](OC(=O)c2ccc(Br)cc2)[C@@H]2OC(=O)[C@@H](Cc3ccccc3)C/C=C/C[C@H](Cc3ccccc3)C(=O)O[C@@H]12"
  recorded-measurement: "inactive"
- line-notation: "COc1cccc(-c2ccc3c(c2)O[C@H](CN(C)Cc2cncnc2)[C@@H](C)CN([C@@H](C)CO)S3(=O)=O)c1"
  recorded-measurement: "inactive"
- line-notation: "COc1ccc(NC(=O)Nc2ccc3c(c2)C(=O)N([C@@H](C)CO)C[C@@H](C)[C@H](CN(C)Cc2ccc(Cl)c(Cl)c2)O3)cc1"
  recorded-measurement: "inactive"

###

# System: HepG2
# method-description: cytotoxicity call (relative viability < 0.9)
# condition: 10 µM
Among all 39,000 compounds or so, about 3,300 (8.5%) were called active. The sample holds actives, similar compounds and a random draw of the others, so the mix is not that of the screen.
Please state which outcome applies, choosing from active, inactive

Could you check what this test reported for `Cc1ccc(S(=O)(=O)Nc2ccc3c(c2)CC(=O)N([C@H](C)CO)C[C@H](C)[C@@H](CN(C)Cc2ccc(Cl)c(Cl)c2)O3)cc1` ?
inactive

Assay result, entry `CCS(=O)(=O)NCC[C@H]1CC[C@H](NC(=O)C2CCOCC2)[C@@H](CO)O1` — outcome?
inactive

Name the outcome recorded for `Cc1ccc(S(=O)(=O)Nc2ccc3c(c2)CC(=O)N([C@H](C)CO)C[C@@H](C)[C@@H](CN(C)Cc2ccc(Cl)c(Cl)c2)O3)cc1` in the assay.
active

For `Cc1ccc(S(=O)(=O)Nc2ccc3c(c2)CC(=O)N([C@@H](C)CO)C[C@H](C)[C@H](CN(C)Cc2ccc(Cl)c(Cl)c2)O3)cc1` , what call appears in the results of this test?
active

// return assay outcome for `CCCNC(=O)N1C[C@@H](O)COC[C@H]2O[C@@H](CC(=O)N3CCOCC3)CC[C@@H]21`
inactive

Lab log entry: `C[C@@H]1CN([C@H](C)CO)C(=O)c2cc(NC(=O)C3CC3)ccc2O[C@@H]1CN(C)C(=O)Nc1ccc2c(c1)OCO2` — outcome as called in the assay?
inactive

###

# Test system: HepG2
# method-description: cytotoxicity call (relative viability < 0.9)
# condition: 10 µM
In all, about 39,000 compounds went through this assay and about 3,300 (8.5%) were called active. The full list was thinned out, with actives kept by preference.
Result category, one only: active, inactive

I'd appreciate the recorded outcome for `C[C@H]1CN([C@@H](C)CO)C(=O)c2cccc(NC(=O)Nc3ccc(C(F)(F)F)cc3)c2O[C@H]1CN(C)Cc1ccc(-c2ccccc2)cc1` from this test.
inactive

// param item: `O=C1CNCCN1C1CCCC1` ; yields the recorded call
inactive

State the result this test recorded for `Cc1cccnc1[C@@H](NC(=O)C1CCN(CCOc2ccc(Cl)cc2Cl)CC1)c1ccc(F)cc1` .
inactive

Please let me know the test result on file for `O=C(N[C@H](c1ccc(Cl)cc1)c1ccccn1)C1CCN(CCOc2ccc(Cl)cc2Cl)CC1` .
inactive

Kindly provide the recorded test outcome for the following compound: `C[C@H](CO)N1C[C@H](C)[C@@H](CN(C)Cc2ccc3c(c2)OCO3)OCc2ccccc2-c2c(n(C)c3ccccc23)C1=O`
inactive

Which outcome was entered for the compound `C[C@@H]1CN([C@H](C)CO)C(=O)c2cc(NC(=O)Nc3ccc4c(c3)OCO4)ccc2O[C@H]1CN(C)Cc1ccc(Oc2ccccc2)cc1` in this test?
inactive

Would you mind telling me which call this test gave CC1CCC2(C)C(C=O)=CCCC2C1(C)CC1OC(O)C(=O)C12CO2 (configuration not stated) ?
active
